- TESTED_TARGET: Aryl hydrocarbon receptor (Homo sapiens) (UniProt P35869)
- Sequence (P35869 whole entry, looked up): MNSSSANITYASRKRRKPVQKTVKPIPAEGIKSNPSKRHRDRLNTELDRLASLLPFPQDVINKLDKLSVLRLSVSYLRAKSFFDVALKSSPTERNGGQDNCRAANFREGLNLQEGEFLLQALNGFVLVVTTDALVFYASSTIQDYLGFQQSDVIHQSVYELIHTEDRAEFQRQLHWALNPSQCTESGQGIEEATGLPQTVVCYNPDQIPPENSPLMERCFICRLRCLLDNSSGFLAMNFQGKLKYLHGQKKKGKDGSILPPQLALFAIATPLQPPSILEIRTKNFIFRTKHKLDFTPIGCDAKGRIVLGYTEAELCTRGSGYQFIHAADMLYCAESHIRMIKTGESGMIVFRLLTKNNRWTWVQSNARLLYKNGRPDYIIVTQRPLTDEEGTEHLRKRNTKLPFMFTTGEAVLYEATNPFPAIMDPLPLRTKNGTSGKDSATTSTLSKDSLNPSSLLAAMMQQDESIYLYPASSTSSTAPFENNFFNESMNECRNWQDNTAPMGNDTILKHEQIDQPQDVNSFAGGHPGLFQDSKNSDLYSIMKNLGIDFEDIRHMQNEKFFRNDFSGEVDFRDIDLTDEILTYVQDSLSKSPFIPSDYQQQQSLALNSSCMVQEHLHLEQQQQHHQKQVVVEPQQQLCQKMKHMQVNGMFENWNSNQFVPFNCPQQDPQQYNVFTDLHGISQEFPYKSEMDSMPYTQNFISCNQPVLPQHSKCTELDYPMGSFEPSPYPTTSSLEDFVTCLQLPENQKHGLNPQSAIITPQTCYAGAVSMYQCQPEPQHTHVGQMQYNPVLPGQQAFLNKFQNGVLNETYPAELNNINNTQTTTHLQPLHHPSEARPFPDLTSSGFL
- TEST_SUMMARY: qHTS assay to identify small molecule that activate the aryl hydrocarbon receptor (AhR) signaling pathway (AID 743085); further: nearly all actives have a fitted effect of over 15% in size;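 on activation: HG2L7.5c1 human HepG2 liver cells with stably integrated DRE-driven firefly reporter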
- ASSAY_SETUP: HepG2 AhR-luc (HG2L7.5c1), luciferase, 24 h; series mostly up to 70.3 µM
Results filed as inconclusive are left out. Active and inactive are the calls of the source. The call rests on the fitted dose curve; in most records, active means well fitted activation curve with a large enough effect in the repeat runs; inconclusive means weak or mixed curves; inactive means no such curve, though single readings can be large or run the other way.
Classes used: yes (active), no (inactive)

COMPOUND: O=S(=O)(O)c1cc(S(=O)(=O)O)c2c(N=Nc3ccccc3)c(O)ccc2c1
CLASS_NAME: no
--
COMPOUND: CC1CC(OC(=O)c2ccccc2O)CC(C)(C)C1 (configuration not stated)
CLASS_NAME: no
--
COMPOUND: Cc1ccc(C(=O)O)o1
CLASS_NAME: no
--
COMPOUND: C=C1CC[C@H](O)CC1=C/C=C1\CCC[C@]2(C)[C@@H]([C@H](C)/C=C/[C@H](C)C(C)C)CC[C@@H]12
CLASS_NAME: no
--
COMPOUND: CC(C)n1c(/C=C/[C@@H](O)C[C@@H](O)CC(=O)O)c(-c2ccc(F)cc2)c2ccccc21
CLASS_NAME: yes
--
COMPOUND: CCCCOCCOCCOC(=O)CCCCC(=O)OCCOCCOCCCC
CLASS_NAME: no
--
COMPOUND: CN(CCOc1ccc(CC2SC(=O)NC2=O)cc1)c1ccccn1 (configuration not stated)
CLASS_NAME: no
--
COMPOUND: CCOC(=O)C1OC1c1ccccc1 (configuration not stated)
CLASS_NAME: no
--
COMPOUND: CCCCCCOC(C)=O
CLASS_NAME: no
--
COMPOUND: CCc1ccc(O)cc1
CLASS_NAME: no
--
COMPOUND: O=C1O[C@H](CO)[C@@H](O)[C@H](O)[C@H]1O
CLASS_NAME: no
--
COMPOUND: C=CC(=O)OCCCCCCCC(C)C
CLASS_NAME: no
